Provenance of the data: PubChem BioAssay (NCI)

- System: SNB-19 CNS
- Method Notes: NCI-60 one-dose screen, 48 h (100 = growth as untreated, 0 = no growth, -100 = all killed)
- Condition Description: 10 µM unless noted
Compounds without any hit were thinned out: in the full panel of roughly 83,000, 20% have a hit.
The label Condition met is reserved for growth strictly under 40%; Condition not met covers values equal to or above it.

1) Cc1ccc2cnc(N)c(C#Cc3cc(C(=O)Nc4ccc(CN5CCN(C)CC5)c(C(F)(F)F)c4)cnc3C)c2c1; Condition met
2) CC/C(=C(\c1ccc(Cl)cc1)c1ccc(OCCN2CCCCC2)cc1)c1ccc(O)cc1; Condition not met
3) Cc1nn(C)c2ncnc(N/N=C/c3cccc(O)c3O)c12; Condition met

Now, please, on to the next molecule.
Given the entry O=C(CN1C(=O)S/C(=C\C(Cl)=C\c2ccccc2)C1=O)NC1CCS(=O)(=O)C1 (stereo not given) , would its reported growth be below 40%? Condition not met
